Assay: MTS assay, metabolic inhibition
Format: cell-based, mouse
Details: Table 6; NIH 3T3 mouse fibroblast cells
Square brackets hold non-standard residues; d marks the D form. Peptide text beside a SMILES is read from it. Nspe = C[C@H](NCC(=O)O)c1ccccc1; Nlys = NCCCCNCC(=O)O
Assay endpoint: IC50 (µM)
Numbers only here, please. The scale is µM.

Which IC50 value is on record for C[C@@H](c1ccccc1)N(CC(N)=O)C(=O)CN(C(=O)CN(CCCCN)C(=O)CN(C(=O)CN(C(=O)CN(CCCCN)C(=O)CN(C(=O)CN(C(=O)CN(CCCCN)C(=O)CN(C(=O)CN(C(=O)CNCCCCN)[C@@H](C)c1ccccc1)[C@@H](C)c1ccccc1)[C@@H](C)c1ccccc1)[C@@H](C)c1ccccc1)[C@@H](C)c1ccccc1)[C@@H](C)c1ccccc1)[C@@H](C)c1ccccc1 [compound 1, H-(NLys-Nspe-Nspe)4-NH2] (H-[Nlys][Nspe][Nspe][Nlys][Nspe][Nspe][Nlys][Nspe][Nspe][Nlys][Nspe][Nspe]-NH2) ? 5.1
